test system: MT4 cells; test: Cytotoxicity test; assay type: cell-based; details: Figure 7
Assay metric: CC50 (µM)
The figure you give is taken to be in µM; do not add the unit.

Prompt line: Note down CC50 recorded for COc1cc(C=CC2=NC(=Cc3ccc(O)cc3)C(=O)N2C)cc(OC)c1O
Response line: 7

Prompt line: Quickly give me recorded CC50 for COc1ccc(C=C2N=C(CC(C)C)C(=O)N(OC)C2=O)cc1
Response line: 7

Prompt line: Look up and state reported CC50 for COc1cc(O)ccc1C=C1N=C(C=Cc2c(F)c(F)c(F)c(F)c2F)N(C)C1=O
Response line: 5

Prompt line: Identify CC50 associated with the compound COc1c(O)ccc(C=C2N=C(C=Cc3ccncc3)N(C)C2=O)c1O
Response line: 6
